biological target: SIRT5 (Homo sapiens, UniProt Q9NXA8); assay: Continuous SIRT5 enzyme inhibition assay; format: biochemical; conditions: Ki
Sequence (Q9NXA8 34-310): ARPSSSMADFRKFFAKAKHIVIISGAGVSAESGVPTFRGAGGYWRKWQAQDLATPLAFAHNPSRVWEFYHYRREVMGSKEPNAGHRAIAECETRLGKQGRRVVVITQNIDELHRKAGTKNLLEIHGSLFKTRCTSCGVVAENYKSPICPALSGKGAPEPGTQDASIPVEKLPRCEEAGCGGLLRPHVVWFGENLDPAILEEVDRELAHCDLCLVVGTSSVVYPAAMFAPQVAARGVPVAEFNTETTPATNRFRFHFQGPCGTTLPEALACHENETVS
pKi: −log10 of the molar value.

# CHEMICAL_SMILES, pKi
rows = [
    ("O=C1CC(CCNC(=S)NCCCC[C@H](NS(=O)(=O)c2cccc(F)c2)C(=O)N[C@@H](Cc2c[nH]c3ccccc23)C(=O)NC2CCC2)=NO1", "~7.00"),
]
